Source: paper PMC7826789

Tested on: MYO3A
Details: Compound Concentration (nM):1000;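 also: KINOMEscan scanMAX binding as percent activity remaining versus control; lower means stronger binding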
We begin with a simple list: items and their reported Percent Control.
Note: unit % is implicit; provide only the numeric part.

{"columns": ["molecule", "readoutValue"],
 "data": [
  ["NS(=O)(=O)c1ccc(N/N=C2\\C(=O)Nc3ccc(C(=O)NCc4ccncc4)cc32)cc1 [GW300657X]", 68],
  ["COc1ccc2[nH]c3c4[nH]c5ccc(OC)cc5c4c4c(c3c2c1)C(=O)NC4=O [GW296115X]", 81],
  ["NS(=O)(=O)c1ccc(N/N=C2\\C(=O)Nc3ccc(C(=O)NCCc4c[nH]cn4)cc32)cc1 [GW300660X]", 100],
  ["COC(=O)Nc1nc2ccc(Oc3ccc(NC(=O)Nc4cc(C(F)(F)F)ccc4F)cc3)cc2s1.Cl [GW693917A]", 93]
]}

Ask | State its Percent Control: `CCc1ccc(Oc2nccc(-c3c(-c4ccc(F)cc4)ncn3C3CCNCC3)n2)cc1`
Reply | 87

Ask | State its Percent Control: Cc1cc(O)cc(C)c1/C=C/c1cncc(C(N)=O)c1 [GW435821X]
Reply | 100

Ask | State its Percent Control: Cl.c1ccc(Cc2nc3ccc(Nc4ncnc5ccccc45)cc3[nH]2)cc1 [GR269666A]
Reply | 100

Ask | State its Percent Control: COc1ccc(COc2ccc(Cc3cnc(N)nc3N)cc2OC)cc1 [GW632580X]
Reply | 92

Ask | State its Percent Control: CN1CCN(C(=O)c2ccc(NC(=O)Nc3ccc(N(C)c4ccnc(Nc5ccc(CS(C)(=O)=O)cc5)n4)cc3)cc2)CC1.Cl [GW830263A]
Reply | 7

* * *

Test system: EPHA1
Conditions: Compound Concentration (nM):1000
We begin with a simple list: items and their reported Percent Control.

Below, 5 compounds whose answers are already recorded.
{"columns": ["compound", "measuredMetric", "readoutValue"],
 "data": [
  ["NS(=O)(=O)c1ccc(N/N=C2\\C(=O)Nc3ccc(C(=O)NCCc4c[nH]cn4)cc32)cc1 [GW300660X]", "Percent Control", "100%"],
  ["O=C(Nc1n[nH]c2nc(-c3ccc(O)cc3)c(Br)cc12)C1CC1", "Percent Control", "82%"],
  ["COc1cc(C=NNc2ncnc3c2cnn3-c2ccccc2)ccc1O [GW513184X]", "Percent Control", "100%"],
  ["COc1cc2ncn(-c3cc(O[C@H](C)c4ccccc4Cl)c(C(N)=O)s3)c2cc1OC [GSK237701A]", "Percent Control", "100%"],
  ["NS(=O)(=O)c1ccc(N/N=C2\\C(=O)Nc3ccc(-c4cnco4)cc32)cc1", "Percent Control", "79%"]
]}

Ask | State its Percent Control: Cl.O=C(Nc1ccc(Oc2ccc3[nH]c(NC(=O)c4ccco4)nc3c2)cc1)Nc1cc(C(F)(F)F)ccc1F [GW683134A]
Reply | 20%

Ask | State its Percent Control: CC1=C(C(=O)Nc2ccc3[nH]ncc3c2)C(c2ccc3ccccc3c2)CC(=O)N1 (stereo not shown) [GSK270822A]
Reply | 93%

* * *

System: DLK
Construct: gene MAP3K12
Details: Compound Concentration (nM):1000
// returns rule not met unless Percent Control is strictly below 80%, in which case rule met

See these solved cases before continuing.
{"columns": ["compound", "assignedClass"],
 "data": [
  ["C/C(Nc1ccc(S(N)(=O)=O)cc1)=C1/C(=O)Nc2ccccc21 [GW335962X]", "rule met"],
  ["CCn1c(-c2nonc2N)nc2c(C#CC(C)(C)O)nc(OCCNC)cc21.Cl", "rule not met"],
  ["NS(=O)(=O)c1ccc(N/N=C2\\C(=O)Nc3ccc(-c4cnco4)cc32)cc1", "rule not met"],
  ["CC1=C(C(=O)Nc2ccc3[nH]ncc3c2)C(c2ccc(Cl)c(Cl)c2)CC(=O)N1 (centres unmarked) [GSK299115A]", "rule met"],
  ["COc1cccc(-c2c[nH]c3c(N/N=C/c4ccncc4)ncnc23)c1 [GW814408X]", "rule not met"]
]}

Ask | Does the reported Percent Control of Cl.c1ccc(Cc2nc3ccc(Nc4ncnc5ccccc45)cc3[nH]2)cc1 [GR269666A] stay below 80%?
Reply | rule not met

Ask | Does the reported Percent Control of COC(=O)Nc1nc2ccc(Oc3ccc(NC(=O)Nc4cc(C(F)(F)F)ccc4F)cc3)cc2s1.Cl [GW693917A] stay below 80%?
Reply | rule met

Ask | Does the reported Percent Control of Cl.O=S1CCN(Cc2ccc(-c3ccc4ncnc(Nc5ccc(OCc6ccccc6)c(F)c5)c4c3)o2)CC1 [GW576924A] stay below 80%?
Reply | rule not met
